- EXPERIMENTAL DETAILS: NOMO-1 AML cell viability reduction, primary screen, STK33 inhibitor project, CellTiter-Glo luminescence (AID 2330)
- CONDITION NOTES: NOMO-1 AML viability, 72 h, stronger effect = higher value, concentration not given here
The whole screen tested about 37,000 compounds, of which about 2,800 (7.6%) were called active. Roughly 1% stayed inconclusive and do not appear here. For the sample, actives were picked, then their nearest neighbours and some compounds at random.
ENDPOINT: inhibition (%)
Your answer should be a plain number; it is taken to be in %.

Observe how each entry below is paired with its result.
COMPOUND: O=C(NCc1ccco1)c1ccc2c(c1)C(=O)N(Cc1cccnc1)C2=O
READING UNIT: %
inhibition: 20
--
COMPOUND: C[C@H]1CN([C@@H](C)CO)C(=O)Cc2cc(NC(=O)NC3CCCCC3)ccc2O[C@@H]1CN(C)Cc1ccc(Oc2ccccc2)cc1
READING UNIT: %
inhibition: 94.9
--
COMPOUND: CCn1c(SCC(=O)O)nnc1-c1ccc(OC)cc1
READING UNIT: %
inhibition: -32.5
--
COMPOUND: COC(=O)c1cc(OC)c(OC)cc1NC(=O)COc1ccc(Cl)cc1
READING UNIT: %
inhibition: 15.1
--
COMPOUND: COC(=O)Nc1nc2ccc(Sc3ccccc3)cc2[nH]1
READING UNIT: %
inhibition: 114
--
COMPOUND: Cc1ccc([N+](=O)[O-])cc1N(CC(=O)Nc1ccc(Cl)c(C(F)(F)F)c1)S(C)(=O)=O
READING UNIT: %
inhibition: 67.2

Notebook: `Cc1cccc(NC(=O)CSc2nnc(-c3ccccc3)n2C2CCCCC2)c1C` , inhibition read as 22.3

Notebook: `CCc1cc(C(=O)OC)c(NC(=S)Nc2ccc(OC)cc2[N+](=O)[O-])s1` , inhibition read as 22.2

----------
- EXPERIMENTAL DETAILS: NOMO-1 AML cell viability reduction, primary screen, STK33 inhibitor project, CellTiter-Glo luminescence (AID 2330)
- CONDITION NOTES: NOMO-1 AML viability, 72 h, stronger effect = higher value, concentration not given here
About 2,800 (7.6%) of roughly 37,000 compounds were called active. About 1% were inconclusive and are not listed. The list comes from a sample in which actives are over-represented; it also holds close analogues and randomly drawn compounds.
Label 1 when inhibition is strictly below 50%; otherwise label 0.

Look over these answered cases.
CHEMICAL SMILES: C[C@H](CO)N1C[C@H](C)[C@H](CN(C)S(=O)(=O)c2ccccc2)Oc2c(NC(=O)CCCCCC(=O)Nc3ccccc3N)cccc2C1=O
CLASS ASSIGNMENT: 0
//
CHEMICAL SMILES: Cc1cc2c(=O)n(C)c(SCC(=O)c3cc4ccccc4o3)nc2s1
CLASS ASSIGNMENT: 1
//
CHEMICAL SMILES: COc1ccc(NC(=O)Nc2ccc3c(c2)CC(=O)N([C@H](C)CO)C[C@H](C)[C@H](CN(C)S(=O)(=O)c2ccccc2)O3)cc1
CLASS ASSIGNMENT: 0
//
CHEMICAL SMILES: O=C(CSc1nnc2c(n1)[nH]c1ccccc12)Nc1cccc(C(F)(F)F)c1
CLASS ASSIGNMENT: 0
//
CHEMICAL SMILES: C[C@H]1CN([C@@H](C)CO)C(=O)c2cc(NS(=O)(=O)c3ccccc3)ccc2O[C@@H]1CN(C)C(=O)NC1CCCCC1
CLASS ASSIGNMENT: 1
//
CHEMICAL SMILES: O=C(CSc1nnc2ccc3ccccc3n12)Nc1ccc2c(c1)OCCO2
CLASS ASSIGNMENT: 1
//
CHEMICAL SMILES: C[C@@H]1CN([C@H](C)CO)C(=O)c2cccc(NC(=O)CCCCCC(=O)Nc3ccccc3N)c2O[C@H]1CN(C)CC1CCCCC1
CLASS ASSIGNMENT: 0
//
CHEMICAL SMILES: COc1ccc(NC(=O)N(C)C[C@@H]2Oc3c(NS(C)(=O)=O)cccc3C(=O)N([C@H](C)CO)C[C@H]2C)cc1
CLASS ASSIGNMENT: 1

Problem: For the compound `COc1ccc(NC(=O)N(C)C[C@@H]2Oc3ccc(NS(C)(=O)=O)cc3C(=O)N([C@@H](C)CO)C[C@@H]2C)cc1` , is inhibition under 50%?
1

Problem: For the compound `Cc1cc(=O)oc2cc(OCc3cccc(F)c3)ccc12` , is inhibition under 50%?
1

Problem: For the compound `CC(C)NC(=O)N(C)C[C@H]1Oc2ccc(NC(=O)CCCCCC(=O)Nc3ccccc3N)cc2CC(=O)N([C@@H](C)CO)C[C@H]1C` , is inhibition under 50%?
1

Problem: For the compound `C[C@@H]1CN([C@@H](C)CO)C(=O)c2cc(NC(=O)Cc3ccccc3)ccc2O[C@H]1CN(C)Cc1ccc(Cl)c(Cl)c1` , is inhibition under 50%?
0

Problem: For the compound `C[C@@H]1CN([C@H](C)CO)C(=O)c2cc(NC(=O)Cc3cn(C)c4ccccc34)ccc2O[C@H]1CN(C)S(C)(=O)=O` , is inhibition under 50%?
1

Problem: For the compound `C[C@H](CO)N1C[C@H](C)[C@H](CN(C)S(C)(=O)=O)Oc2ccc(NC(=O)c3ccncc3)cc2CC1=O` , is inhibition under 50%?
1

----------
- EXPERIMENTAL DETAILS: NOMO-1 AML cell viability reduction, primary screen, STK33 inhibitor project, CellTiter-Glo luminescence (AID 2330)
- CONDITION NOTES: NOMO-1 AML viability, 72 h, stronger effect = higher value, concentration not given here
Screen size: about 37,000 compounds; about 2,800 (7.6%) were called active. Roughly 1% stayed inconclusive and do not appear here. Shown is part of a subset that was picked to be rich in actives.
# maps each entry to its inhibition

Observe how each entry below is paired with its result.
CHEMICAL SMILES: COc1ccc(NC(=O)N(C)C[C@@H]2Oc3ccc(NC(=O)CCCN(C)C)cc3CC(=O)N([C@H](C)CO)C[C@H]2C)cc1
inhibition: -16.5% (inactive)
//
CHEMICAL SMILES: C[C@@H]1CCCCO[C@H](CN(C)Cc2ccccc2)[C@@H](C)CN([C@H](C)CO)C(=O)c2cc(NS(=O)(=O)c3ccc(Cl)cc3)ccc2O1
inhibition: 40.5% (inactive)

Notebook: `COc1ccc(NC(=O)Nc2ccc3c(c2)C(=O)N([C@H](C)CO)C[C@H](C)[C@@H](CN(C)C(=O)Nc2ccc4c(c2)OCO4)O3)cc1` , inhibition read as 14.3% (inactive)

Notebook: `C[C@@H]1CN([C@@H](C)CO)C(=O)c2cc(NC(=O)c3ccncc3)ccc2O[C@H]1CN(C)Cc1ccc(C(=O)O)cc1` , inhibition read as 19.8% (inactive)

Notebook: `C[C@@H]1CN([C@@H](C)CO)C(=O)c2cc(NS(=O)(=O)c3ccccc3)ccc2O[C@@H]1CN(C)Cc1ccc(C(=O)Nc2ccccc2N)cc1` , inhibition read as 110% (active)

Notebook: `CN1C(=O)C(Cc2ccccc2)(Cc2ccccc2)c2ccccc21` , inhibition read as 96.7% (active)

----------
- EXPERIMENTAL DETAILS: NOMO-1 AML cell viability reduction, primary screen, STK33 inhibitor project, CellTiter-Glo luminescence (AID 2330)
- CONDITION NOTES: NOMO-1 AML viability, 72 h, stronger effect = higher value, concentration not given here
About 2,800 (7.6%) of roughly 37,000 compounds were called active. Not shown: some 1% with an inconclusive outcome. This excerpt belongs to a sample that is enriched for actives.
# maps each entry to its inhibition
Your answer should be a plain number; it is taken to be in %.

Observe how each entry below is paired with its result.
CHEMICAL SMILES: COc1ccc(-c2cc(C(F)(F)F)n3nc(C(=O)NCCCN4CCOCC4)cc3n2)cc1OC
READING UNIT: %
MEASUREMENT: 2.66
--
CHEMICAL SMILES: Nc1nnc(SCC(=O)Nc2ccc(F)c(Cl)c2)s1
READING UNIT: %
MEASUREMENT: 10
--
CHEMICAL SMILES: Cc1ccc(OCc2n[nH]c(=S)n2C2CCCCC2)c2c1CCC2
READING UNIT: %
MEASUREMENT: 111

Notebook: `CCOC(=O)c1nnn2c1nc(N1CCN(c3ccccc3)CC1)c1ccccc12` , inhibition read as 101

----------
- EXPERIMENTAL DETAILS: NOMO-1 AML cell viability reduction, primary screen, STK33 inhibitor project, CellTiter-Glo luminescence (AID 2330)
- CONDITION NOTES: NOMO-1 AML viability, 72 h, stronger effect = higher value, concentration not given here
In all, about 37,000 compounds went through this assay and about 2,800 (7.6%) were called active. About 1% were inconclusive and are not listed. This is one part of a sample in which actives are shown more often than they occur.
Label criterion met when inhibition is strictly below 20%; otherwise label criterion not met.

COMPOUND: C[C@@H]1O[C@@H](O[C@H]2[C@@H](Oc3cc(O)c4c(c3)O[C@H](c3ccc(O)cc3)CC4=O)O[C@H](CO)[C@@H](O)[C@@H]2O)[C@H](O)[C@H](O)[C@H]1O
CLASS ASSIGNMENT: criterion met

Problem: For the compound `Cc1cccc(N(CC(=O)Nc2cccc([N+](=O)[O-])c2)S(C)(=O)=O)c1C` , is inhibition under 20%?
criterion met

Problem: For the compound `CC(C)NC(=O)Nc1ccc2c(c1)CC(=O)N([C@H](C)CO)C[C@@H](C)[C@@H](CN(C)Cc1ccc(C(=O)Nc3ccccc3N)cc1)O2` , is inhibition under 20%?
criterion not met

Problem: For the compound Cc1nc2ccccc2n1CC(O)COc1ccc(C2C=CCC2)cc1 (stereo unspecified) , is inhibition under 20%?
criterion not met
